# assay.info: Apparent permeability, 21 day cultured Caco-2 cell monolayer, bi-directional (Example 7)
# Format: in vitro ADME
# assay.context: Caco-2, 2 μM; 120 minutes; read-out: A to B % Recovery
Where a SMILES comes first, the peptide text is derived from it. [ ]: non-standard residue; d: D form. Hyp = O=C(O)[C@@H]1C[C@@H](O)CN1
measured.property: recovery (%)
Give bare numbers, in %.

Lab note: CC(C)C[C@H](NC(=O)[C@H](CCC(N)=O)NC(=O)CNC(=O)[C@@H]1C[C@@H](O)CN1)C(=O)NCC(=O)O [YDE-043] (H-[Hyp]GQLG-OH; N-terminus and C-terminus assumed) gave recovery of 34

---

# assay.info: PBMC cell counts (total, live, viability; trypan blue, Countess) with and without LPS and test articles (Example 9)
# Assay type: cell-based, human
# assay.context: human, PBMCs, PBMC + compound 100 uM, no LPS; 24 hr
Where a SMILES comes first, the peptide text is derived from it. [ ]: non-standard residue; d: D form. Hyp = O=C(O)[C@@H]1C[C@@H](O)CN1
measured.property: viability at 24 h, 100 µM (%)
Answers are plain numbers, in %.

Lab note: CC(C)C[C@H](NC(=O)CNC(=O)[C@H](CC(=O)O)NC(=O)[C@H](CCC(N)=O)NC(=O)CNC(=O)[C@@H]1C[C@@H](O)CN1)C(=O)N[C@@H](C)C(=O)NCC(=O)N1CCC[C@H]1C(=O)N[C@@H](CCCCN)C(=O)O [YY-101] (H-[Hyp]GQDGLAGPK-OH; N-terminus and C-terminus assumed) gave viability at 24 h, 100 µM of 86.5

---

# System: IL-6 cytokine release in poly I:C stimulated primary human corneal epithelial cells
# assay.info: Soluble IL-6 cytokine release in poly I:C stimulated primary human corneal epithelial cells by ELISA (Example 2)
# Assay type: cell-based
# assay.context: 25 μg/mL poly I:C, 24 hours
Where a SMILES comes first, the peptide text is derived from it. [ ]: non-standard residue; d: D form. The star is where a group is joined. Pyrrolidin1yl(2S-Ac) = CC(=O)[C@@H]1CCCN1*; Hyp = O=C(O)[C@@H]1C[C@@H](O)CN1; Pyrrolidide = C1CCN(*)C1; X1 = CCN(C(C)C)*
measured.property: tested concentrations with significant attenuation of IL-6 cytokine release

Some molecules with recorded tested concentrations with significant attenuation of IL-6 cytokine release:
CC(C)C[C@H](NC(=O)CNC(=O)[C@H](CC(C)C)NC(=O)[C@H](CCC(N)=O)NC(=O)CNC(=O)[C@@H]1C[C@@H](O)CN1)C(=O)N[C@@H](C)C(=O)NCC(=O)N1CCC[C@H]1C(=O)N1CCCC1 [YDE-106] (H-[Hyp]GQLGLAGP-Pyrrolidide) ... 30 μM, 10 μM, and 1 μM
CC(C)C[C@H](NC(=O)CNC(=O)[C@H](CC(C)C)NC(=O)[C@H](CCC(N)=O)NC(=O)CNC(=O)[C@@H]1C[C@@H](O)CN1)C(=O)N[C@@H](C)C(=O)NCC(=O)N1CCC[C@H]1C(=O)N(C)C [YDE-101] (H-[Hyp]GQLGLAGP-NMe2) ... 30 μM, 10 μM, and 1 μM
CC(=O)[C@@H]1CCCN1C(=O)CNC(=O)[C@H](C)NC(=O)[C@H](CC(C)C)NC(=O)CNC(=O)[C@H](CC(C)C)NC(=O)[C@H](CCC(N)=O)NC(=O)CNC(=O)[C@@H]1C[C@@H](O)CN1 [YDE-100] (H-[Hyp]GQLGLAG-{Pyrrolidin1yl(2S-Ac)}) ... 30 μM, and 10 μM
CCNC(=O)[C@@H]1CCCN1C(=O)CNC(=O)[C@H](C)NC(=O)[C@H](CC(C)C)NC(=O)CNC(=O)[C@H](CC(C)C)NC(=O)[C@H](CCC(N)=O)NC(=O)CNC(=O)[C@@H]1C[C@@H](O)CN1 [YDE-102] (H-[Hyp]GQLGLAGP-NHEt) ... 30 μM, 10 μM, and 1 μM

Would you kindly look at the next entry?
Lab note: CCN(C(=O)[C@@H]1CCCN1C(=O)CNC(=O)[C@H](C)NC(=O)[C@H](CC(C)C)NC(=O)CNC(=O)[C@H](CC(C)C)NC(=O)[C@H](CCC(N)=O)NC(=O)CNC(=O)[C@@H]1C[C@@H](O)CN1)C(C)C [YDE-107] (H-[Hyp]GQLGLAGP-X1) gave tested concentrations with significant attenuation of IL-6 cytokine release of 30 μM, 10 μM, and 1 μM

---

# assay.info: Apparent permeability, 21 day cultured Caco-2 cell monolayer, bi-directional (Example 7)
# Format: in vitro ADME
# assay.context: human, Caco-2; 2 μM; 120 minutes; average values; read-out: Papp Apical to Basal
measured.property: Papp A→B at 120 min, 2 μM (×10⁻⁶ cm/s)
Answers are plain numbers, in ×10⁻⁶ cm/s.

Lab note: CC(C)NCC(O)COc1cccc2ccccc12 (stereo not shown) [Propranolol, reference compound] gave Papp A→B at 120 min, 2 μM of 23.8

---

# assay.info: PBMC cell counts (total, live, viability; trypan blue, Countess) with and without LPS and test articles (Example 9)
# Assay type: cell-based, human
# assay.context: human, PBMCs, PBMC + LPS(5 ug/ml) + compound 10 uM; 24 hr
Where a SMILES comes first, the peptide text is derived from it. [ ]: non-standard residue; d: D form. Hyp = O=C(O)[C@@H]1C[C@@H](O)CN1
measured.property: viability at 24 h, 10 µM

CC(C)C[C@H](NC(=O)CNC(=O)[C@H](CC(C)C)NC(=O)[C@H](CCC(N)=O)NC(=O)CNC(=O)[C@@H]1C[C@@H](O)CN1)C(=O)N[C@@H](C)C(=O)NCC(=O)N1CCC[C@H]1C(=O)N[C@@H](CCCCN)C(=O)O [YDE-011] (H-[Hyp]GQLGLAGPK-OH) ... 88.3%

Hi! Can you tell me viability at 24 h, 10 µM for each of these compounds?
1. CC(C)C[C@H](NC(=O)CNC(=O)[C@H](CC(=O)O)NC(=O)[C@H](CCC(N)=O)NC(=O)CNC(=O)[C@@H]1C[C@@H](O)CN1)C(=O)N[C@@H](C)C(=O)NCC(=O)N1CCC[C@H]1C(=O)N[C@@H](CCCCN)C(=O)O [YY-101] (H-[Hyp]GQDGLAGPK-OH; N-terminus and C-terminus assumed)
2. CC(C)C[C@H](NC(=O)[C@H](CCC(N)=O)NC(=O)CNC(=O)[C@@H]1C[C@@H](O)CN1)C(=O)NCC(=O)O [YDE-043] (H-[Hyp]GQLG-OH; N-terminus and C-terminus assumed)

[A]
1. 73.7%
2. 83.3%

---

# assay.info: PBMC cell counts (total, live, viability; trypan blue, Countess) with and without LPS and test articles (Example 9)
# Type: cell-based, human
# assay.context: human, PBMCs, PBMC + LPS(5 ug/ml) + compound 0.01 uM; 24 hr
Where a SMILES comes first, the peptide text is derived from it. [ ]: non-standard residue; d: D form. Hyp = O=C(O)[C@@H]1C[C@@H](O)CN1
Would you kindly list viability at 24 h, 0.01 µM for each of these compounds?
One number for each entry, in %.

Some compounds with recorded viability at 24 h, 0.01 µM:
CC(C)C[C@H](NC(=O)[C@H](CCC(N)=O)NC(=O)CNC(=O)[C@@H]1C[C@@H](O)CN1)C(=O)NCC(=O)O [YDE-043] (H-[Hyp]GQLG-OH; N-terminus and C-terminus assumed) ... 77.3
CC(C)C[C@H](NC(=O)CNC(=O)[C@H](CC(C)C)NC(=O)[C@H](CCC(N)=O)NC(=O)CNC(=O)[C@@H]1C[C@@H](O)CN1)C(=O)N[C@@H](C)C(=O)NCC(=O)N1CCC[C@H]1C(=O)N[C@@H](CCCCN)C(=O)O [YDE-011] (H-[Hyp]GQLGLAGPK-OH) ... 81

Would you kindly look at the next entry?
Lab note: CC(C)C[C@H](NC(=O)CNC(=O)[C@H](CC(=O)O)NC(=O)[C@H](CCC(N)=O)NC(=O)CNC(=O)[C@@H]1C[C@@H](O)CN1)C(=O)N[C@@H](C)C(=O)NCC(=O)N1CCC[C@H]1C(=O)N[C@@H](CCCCN)C(=O)O [YY-101] (H-[Hyp]GQDGLAGPK-OH; N-terminus and C-terminus assumed) gave viability at 24 h, 0.01 µM of 77.3

---

# assay.info: Apparent permeability, 21 day cultured Caco-2 cell monolayer, bi-directional (Example 7)
# Format: in vitro ADME
# assay.context: human, Caco-2; Papp B-A / Papp A-B
measured.property: efflux ratio at 120 min, 2 μM
Numbers only.

Lab note: CC(C)NCC(O)COc1cccc2ccccc12 (stereo not shown) [Propranolol, reference compound] gave efflux ratio at 120 min, 2 μM of 1.56

From: patent US20230146455A1
